Source of measurements: paper PMC12195648

System: K562 cells
Assay Name: Cytotoxicity, resazurin assay, K562
Format: cell-based, human
Assay Conditions: GI50 HEK-293T / GI50 K562
Reported SI (K562) values follow for various compounds
Reported Endpoint: SI (K562)

- OCCN1CCN(c2ccc(Nc3nc(Nc4cccc(Br)c4)c4ncn(CC5CC5)c4n3)cc2)CC1 [Compound 7d]: 5.5
- OCCN1CCN(c2ccc(Nc3nc(Nc4ccc(Cl)c(C(F)(F)F)c4)c4ncn(CC5CC5)c4n3)cc2)CC1 [Compound 7f]: 1.1
- COC(=O)c1ccc(Nc2nc(Nc3ccc(N4CCN(CCO)CC4)cc3)nc3c2ncn3CC2CC2)cc1Cl [Compound 7e]: 2.7
- N#Cc1cccc(Nc2nc(Nc3ccc(N4CCN(CCO)CC4)cc3)nc3c2ncn3CC2CC2)c1 [Compound 7b]: 3.6
- OCCOCCN1CCN(c2ccc(Nc3nc(Nc4cccc(F)c4)c4ncn(CC5CC5)c4n3)cc2)CC1 [Compound 7a]: 5.0
- COc1cc(Nc2nc(Nc3ccc(N4CCN(CCO)CC4)cc3)nc3c2ncn3CC2CC2)ccc1Br [Compound 7g]: 1.8
